- test protocol: method code SF-AS, from DOI: 10.1002/jps.2600790712, PMID: 2398468
# Lookup of reported logP keyed by entry

Look over these answered cases.
[[record]]
smiles_str = "C[C@H](CCCNCc1ccc(Cl)cc1)[C@H]1CC[C@H]2[C@@H]3CC[C@@H]4C[C@H](O)CC[C@]4(C)[C@H]3CC[C@]12C"
measured = 5

[[record]]
smiles_str = "C[C@H](CCCNCc1ccccc1)[C@H]1CC[C@H]2[C@@H]3CC[C@@H]4C[C@H](O)CC[C@]4(C)[C@H]3CC[C@]12C"
measured = 4.9

[[record]]
smiles_str = "C[C@H](CCCNCc1cccc(Cl)c1)[C@H]1CC[C@H]2[C@@H]3CC[C@@H]4C[C@H](O)CC[C@]4(C)[C@H]3CC[C@]12C"
measured = 4.95


Incoming: I would be grateful if you could share the reported logP for `C[C@H](CCCNCc1ccccc1)[C@H]1CC[C@H]2[C@@H]3CC[C@@H]4C[C@H](O)CC[C@]4(C)[C@H]3C[C@H](O)[C@]12C` .
Outgoing: 4.8

Incoming: I would be grateful if you could share the reported logP for `C[C@H](CCC(=O)NCc1ccccc1)[C@H]1CC[C@H]2[C@@H]3[C@H](O)C[C@@H]4C[C@H](O)CC[C@]4(C)[C@H]3C[C@H](O)[C@]12C` .
Outgoing: 3.54

###

- test protocol: method code SF-AS, from DOI: 10.1002/jps.2600790712, PMID: 2398468
endpoint name: logP
Give the figure only, with no unit attached.

Look over these answered cases.
[[record]]
smiles_str = "C[C@H](CCCN)[C@H]1CC[C@H]2[C@@H]3[C@@H](O)C[C@@H]4C[C@H](O)CC[C@]4(C)[C@H]3CC[C@]12C"
measured = 4

[[record]]
smiles_str = "C[C@H](CCCNCc1ccccc1)[C@H]1CC[C@H]2[C@@H]3[C@H](O)C[C@@H]4C[C@H](O)CC[C@]4(C)[C@H]3C[C@H](O)[C@]12C"
measured = 3.82

[[record]]
smiles_str = "C[C@H](CCCNCc1ccccc1)[C@H]1CC[C@H]2[C@@H]3[C@H](O)C[C@@H]4C[C@H](O)CC[C@]4(C)[C@H]3CC[C@]12C"
measured = 4.2


# next compound below
Incoming: I would be grateful if you could share the reported logP for `C[C@H](CCCNCc1ccccc1Cl)[C@H]1CC[C@H]2[C@@H]3CC[C@@H]4C[C@H](O)CC[C@]4(C)[C@H]3CC[C@]12C` .
Outgoing: 5.05

Where do the numbers come from? From the SangsterLogP compilation.
